Target: MBP-FoxP1dN (Mus musculus, UniProt P58462 326-579)
Sequence: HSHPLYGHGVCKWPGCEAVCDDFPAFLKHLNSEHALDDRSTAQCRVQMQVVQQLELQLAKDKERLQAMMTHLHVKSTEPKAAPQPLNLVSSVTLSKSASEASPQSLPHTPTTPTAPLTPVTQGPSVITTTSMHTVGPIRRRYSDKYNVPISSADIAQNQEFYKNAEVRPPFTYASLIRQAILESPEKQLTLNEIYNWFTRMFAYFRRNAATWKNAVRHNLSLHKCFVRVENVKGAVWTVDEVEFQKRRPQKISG
Test: PD-seq (MBP pull-down with sequencing); 20 mM Tris-HCl pH 7.5, 100 mM NaCl, 1.5 mM MgCl2, 0.4 uM protein, 0.1 uM dsDNA library, 30 min, room temperature, amylose pull-down; high values mean tight binding
Conditions: protein: recombinant; tags: His6-MBP; chain copies: 2; dsDNA, one strand shown
Over roughly 16,000 sequences, “rpm ratio (pull-down/input)” has its median near 0.94; the highest 2% begin near 1.7. For the sample, the highest values were picked, then their nearest neighbours and some sequences at random.
QUANTITY MEASURED: binding signal

query_sequence=GATGATTGTTCTCCCAGCTGATGAATTAGTCACCTCGAGTAAACAAATTTTCCTAATCTTTCTGTTCAAGCGCCATCTAC quantity_measured="binding signal" recorded_result="0.877 RPM ratio (pull-down/input)"
query_sequence=GATGATTGTTCTCCCAGCTGATGAATTGGACTATTCGAGTAAACAAATTTTCCTAATCTTTCTGTTCAAGCGCCATCTAC quantity_measured="binding signal" recorded_result="0.893 RPM ratio (pull-down/input)"
query_sequence=GATGATTGTTCTCCCAGCTGATGAATTCGCTTGCTCGAGTAAACAAATTTTCCTAATCTTTCTGTTCAAGCGCCATCTAC quantity_measured="binding signal" recorded_result="0.817 RPM ratio (pull-down/input)"
query_sequence=GATGATTGTTCTCCCAGCTGATGAATTAGGCGCGTCGAGTAAACAAATTTTCCTAATCTTTCTGTTCAAGCGCCATCTAC quantity_measured="binding signal" recorded_result="1.03 RPM ratio (pull-down/input)"
query_sequence=GATGATTGTTCTCCCAGCTGATGAATTGAGTGATTCGAGTAAACAAATTTTCCTAATCTTTCTGTTCAAGCGCCATCTAC quantity_measured="binding signal" recorded_result="0.981 RPM ratio (pull-down/input)"
query_sequence=GATGATTGTTCTCCCAGCTGATGAATTTTTTCTGTCGAGTAAACAAATTTTCCTAATCTTTCTGTTCAAGCGCCATCTAC quantity_measured="binding signal" recorded_result="0.986 RPM ratio (pull-down/input)"
query_sequence=GATGATTGTTCTCCCAGCTGATGAATTTTTTTTGTCGAGTAAACAAATTTTCCTAATCTTTCTGTTCAAGCGCCATCTAC quantity_measured="binding signal" recorded_result="0.87 RPM ratio (pull-down/input)"
